Tested on: Agrostis tenuis
Experiment: Microscreen (pre-emergence), Example B3
Assay type: in vivo
Conditions: preemergent application, 250 g/ha, evaluated 8 days later, 100%=total damage
metric-name: herbicidal damage, Agrostis (%)
All answers are understood in %, so give the number only.

Below: 5 compounds and their reported herbicidal damage, Agrostis.
O=C(C1=C(O)C2CCC(C2)C1=O)c1ccc(C(F)(F)F)n2c(C3CC3)nnc12 (centres unmarked) [Compound 1.8]
100
Cc1nnc2c(C(=O)C3=C(O)CCCC3=O)ccc(C(F)(F)F)n12 [Compound 3.4]
100
CCc1nnc2c(C(=O)C3=C(O)C4CCC(C4)C3=O)ccc(C(F)(F)F)n12 (centres unmarked) [Compound 1.5]
100
Cc1nnc2c(C(=O)C3C(=O)C4CCC(C4)C3=O)ccc(C(F)(F)F)n12 (centres unmarked) [Compound 1.4]
50
CCCC1CCC(=O)C(C(=O)c2ccc(C(F)(F)F)n3c(C)nnc23)=C1O (centres unmarked) [41.6]
100

Reported herbicidal damage, Agrostis for Cc1nnc2c(C(=O)C3=C(O)CC(C)CC3=O)ccc(C(F)(F)F)n12 (centres unmarked) [Compound 4.3] was 100

Reported herbicidal damage, Agrostis for Cc1nnc2c(C(=O)C3=C(O)C(C)(C)C(=O)C(C)(C)C3=O)ccc(C(F)(F)F)n12 [Compound 5.3] was 50

Reported herbicidal damage, Agrostis for Cc1nnc2c(C(=O)C3=C(O)C4(CCC3=O)CC4)ccc(C(F)(F)F)n12 [41.2] was 100
